Literature-derived pKi for D(3) dopamine receptor (Homo sapiens, UniProt P35462) follows.
pKi: −log10 of the molar value.
Measured Quantity: pKi

Mol Smiles: COc1ccccc1N1CCCN(CCCCNC(=O)c2cc3ccccc3s2)CC1
Test Result: 8.82
//
Mol Smiles: CN1C(=O)c2ccccc2[S@+]([O-])c2ccc(C(=O)NCc3ccc(Br)cc3)cc21
Test Result: 6.43
//
Mol Smiles: COc1ccccc1N1CCN(CCCCc2cn(-c3ccc4ccccc4c3)nn2)CC1
Test Result: 8.53
//
Mol Smiles: C[Si](C)(C)C#Cc1cccn1C1CCN(Cc2ccccc2)CC1
Test Result: 5.11
//
Mol Smiles: COc1cccc2cc3n(c12)CCN(CCCCNC(=O)C1=Cc2ccccc2CN1)C3
Test Result: 7.47

* * *

pKi: −log10 of the molar value.
Literature compilation of pKi measurements on D(3) dopamine receptor (Homo sapiens, UniProt P35462).
Sequence (P35462 whole entry): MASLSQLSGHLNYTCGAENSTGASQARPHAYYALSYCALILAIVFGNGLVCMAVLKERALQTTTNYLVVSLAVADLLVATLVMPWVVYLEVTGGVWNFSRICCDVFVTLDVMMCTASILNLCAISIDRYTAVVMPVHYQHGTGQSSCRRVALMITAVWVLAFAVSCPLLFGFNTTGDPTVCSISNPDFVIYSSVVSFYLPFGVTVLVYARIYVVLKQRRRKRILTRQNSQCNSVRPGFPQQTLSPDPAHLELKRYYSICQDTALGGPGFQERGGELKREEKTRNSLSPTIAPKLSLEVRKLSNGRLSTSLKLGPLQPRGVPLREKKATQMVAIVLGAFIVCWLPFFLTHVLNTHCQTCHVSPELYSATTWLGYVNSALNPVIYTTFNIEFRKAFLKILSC

Compound: CS(=O)(=O)c1ccc2c(c1)CCN(CC[C@H]1CC[C@H](NC(=O)/C=C/c3ccccc3F)CC1)CC2
Test System: D(3) dopamine receptor (Homo sapiens, UniProt P35462)
pKi: 8.90

Compound: CN(CCCCNC(=O)c1ccc(-c2ccccc2)cc1)C1CCc2nc(N)ncc2C1 (stereo not given)
Test System: D(3) dopamine receptor (Homo sapiens, UniProt P35462)
pKi: 8.00

Compound: COc1cc2c(cc1O)CN(Cc1ccccc1CNC(=O)c1cccc(OC)c1OC)CC2
Test System: D(3) dopamine receptor (Homo sapiens, UniProt P35462)
pKi: 7.24

Compound: Cc1c(C2CCN(Cc3ccccc3)CC2)n[nH]c1-c1ccc(Cl)cc1
Test System: D(3) dopamine receptor (Homo sapiens, UniProt P35462)
pKi: 6.37

Compound: COc1ccc(S(=O)(=O)Oc2ccccc2)cc1-c1ccc(CN2CCCCCC2c2ccccc2)[nH]1 (stereo not given)
Test System: D(3) dopamine receptor (Homo sapiens, UniProt P35462)
pKi: 8.00

* * *

// read-out Ki, gathered for UniProt:P35462 from published studies

Mol Smiles: O=Cc1cnn2ccc(-n3cc(CCCN4CCN(c5cccc(Cl)c5Cl)CC4)nn3)cc12
Ki (µM): 0.012
//
Mol Smiles: C=CCN1CC[C@H](OCc2ccccc2)[C@H]1CNC(=O)c1cc(CCCF)cc(OC)c1OC
Ki (µM): 0.0029
//
Mol Smiles: O=C(CCCCCCCCCCCCC(=O)OC1(c2ccc(Cl)cc2)CCN(CCCC(=O)c2ccc(F)cc2)CC1)OC1(c2ccc(Cl)cc2)CCN(CCCC(=O)c2ccc(F)cc2)CC1
Ki (µM): 0.16
//
Mol Smiles: COc1ccccc1N1CCN(CCCCn2cc(-c3ccccc3)nn2)CC1
Ki (µM): 0.0229

* * *

Ki values for D(3) dopamine receptor (Homo sapiens, UniProt P35462) compiled from several publications are listed below.

Compound: O/N=C/c1cc2cc(OCCCCN3CCN(c4cccc(Cl)c4Cl)CC3)ccn2n1
Inequality Symbol: =
Ki (nM): 0.86
--
Compound: CN1CCc2ccccc2Cc2ccc(O)c(Cl)c2CC1
Inequality Symbol: =
Ki (nM): 24.6
--
Compound: COc1ccccc1N1CCN(CCCNC(=O)Nc2cccc(-c3ccccc3)c2)CC1
Inequality Symbol: =
Ki (nM): 26
--
Compound: COc1ccccc1N1CCN(Cc2cc3c(=O)[nH]c(N(C)C)nc3[nH]2)CC1
Inequality Symbol: =
Ki (nM): 960
--
Compound: O=Cc1cnn2ccc(-n3cc(CCCCN4CCN(c5cccc(Cl)c5Cl)CC4)nn3)cc12
Inequality Symbol: =
Ki (nM): 4.4
--
Compound: Fc1ccccc1N1CCN(Cc2cnn(-c3ccccc3)c2)CC1
Inequality Symbol: =
Ki (nM): 67
--
Compound: Clc1ccc(-c2cc(C3CCCN(Cc4ccccc4)C3)[nH]n2)cc1 (stereo unspecified)
Inequality Symbol: =
Ki (nM): 240
--
Compound: c1ccc(CN2CCC(NCc3coc(-c4ccccc4)n3)CC2)cc1
Inequality Symbol: =
Ki (nM): 6100
--
Compound: O=C(NCCCCN1CCN(c2cccc3[nH]ccc23)CC1)c1ccc2ccccc2c1
Inequality Symbol: =
Ki (nM): 1.3
--
Compound: CN(C)CCOc1ccccc1Cc1ccccc1
Inequality Symbol: >
Ki (nM): 10000
--
Compound: COc1ccc(C(=O)NCCCCN2CCc3cc(OC)c(O)cc3C2)cc1
Inequality Symbol: =
Ki (nM): 5.9
--
Compound: C[C@H]1CN(C(=O)c2ccc(-c3ccccc3)cc2)CCN1C(=O)c1ccc2cc[nH]c2c1
Inequality Symbol: >
Ki (nM): 10000
--
Compound: CN(C)[C@H]1c2cc3c(ccn3S(=O)(=O)c3ccccc3)cc2[C@@H]1CCO (relative stereo)
Inequality Symbol: =
Ki (nM): 126
--
Compound: N#CC(C#N)=Cc1ccn(C2CCN(Cc3ccccc3)CC2)c1
Inequality Symbol: =
Ki (nM): 7000
--
Compound: COc1ccc2[nH]c3c(c2c1)CCN(C)CCc1ccccc1C3
Inequality Symbol: =
Ki (nM): 475
--
Compound: COc1cc(CCN2CCC(O)(c3ccc(Cl)cc3)CC2)ccc1OCCCSSCCN
Inequality Symbol: =
Ki (nM): 600
--
Compound: O=C(NCCCCN1CCN(c2cccc(Cl)c2Cl)CC1)c1ccc(-c2ccccn2)cc1
Inequality Symbol: =
Ki (nM): 0.4
--
Compound: CCCN(CCC)[C@H]1CCn2cc(CO)cc2C1
Inequality Symbol: =
Ki (nM): 8600
--
Compound: CCCCCC1CCN(CCCN2C(=O)CCc3ccccc32)CC1
Inequality Symbol: =
Ki (nM): 282
--
Compound: Cc1ccc(-c2cc3c(cc2O)C(c2ccccc2)CN(C)CC3)cc1 (racemic)
Inequality Symbol: >
Ki (nM): 1000
--
Compound: Cc1nc(N)sc1CCCN/C(N)=N/C(=O)NCC(C)CCc1ccccc1 (stereo unspecified)
Inequality Symbol: =
Ki (nM): 45.7
--
Compound: OC(CCn1cc(-c2cnc3ccccc3c2)nn1)CN1CCN(c2cccc(Cl)c2Cl)CC1 (racemic)
Inequality Symbol: =
Ki (nM): 18
--
Compound: Brc1cccc(N2CCN(Cc3cnn4ccccc34)CC2)n1
Inequality Symbol: =
Ki (nM): 410
--
Compound: CN1CCc2cc(O)ccc2C(c2ccccc2)C1 (racemic)
Inequality Symbol: >
Ki (nM): 1000
--
Compound: COc1ccccc1N1CCN(Cc2cc(CN(C)C)c3cccccc2-3)CC1
Inequality Symbol: =
Ki (nM): 390
--
Compound: CCCN(CCCCNC(=O)c1ccc(-c2ccccc2)cc1)C1CCc2c(cccc2OCC2CC2)C1 (stereo unspecified)
Inequality Symbol: =
Ki (nM): 2.51
--
Compound: COc1ccccc1N1CCCN(CCCCNC(=O)c2cccc(OC)c2OC)CC1
Inequality Symbol: =
Ki (nM): 44.2
--
Compound: [N-]=[N+]=NCCSSCCn1cc(C(=O)CCCN2CCC(O)(c3ccc(Cl)cc3)CC2)nn1
Inequality Symbol: =
Ki (nM): 210
--
Compound: S=c1[nH]c2cccc(OCCNCc3ccccc3)c2[nH]1
Inequality Symbol: =
Ki (nM): 2
--
Compound: O=C(/C=C\c1ccccc1)NCCCCN1CCc2ccc(OS(=O)(=O)C(F)(F)F)cc2C1
Inequality Symbol: =
Ki (nM): 39.8
--
Compound: COc1ccccc1N1CCN(CCCCc2cn(-c3ccccc3O)nn2)CC1
Inequality Symbol: =
Ki (nM): 2.9
--
Compound: CCN1CCCC1c1ccc(-c2cc(S(=O)(=O)CC)ccc2OC)[nH]1 (stereo unspecified)
Inequality Symbol: =
Ki (nM): 5.01
--
Compound: C[C@H]1Cc2c([nH]c3ccccc23)Cc2ccccc2CCN1C
Inequality Symbol: =
Ki (nM): 304
--
Compound: COc1ccccc1N1CCN(Cc2cn(CCOCCOCCOCCF)nn2)CC1
Inequality Symbol: =
Ki (nM): 7600
--
Compound: N#Cc1ccc2c(c1)CCN(CC[C@H]1CC[C@H](NC(=O)c3cccc4ccccc34)CC1)C2
Inequality Symbol: =
Ki (nM): 7.94
--
Compound: C=CCN1C[C@H](OCCO)C[C@H]1CNC(=O)c1cc(CCCF)cc(OC)c1OC
Inequality Symbol: =
Ki (nM): 2.4
--
Compound: CCCc1cn(CCCCCCCCn2cc(CCCOc3ccc(CN4CCN(c5ccccc5OC)CC4)cc3OC)nn2)nn1
Inequality Symbol: =
Ki (nM): 230
--
Compound: COc1cc(CN[C@H]2C3C4CC5C6C4CC3C6C52)cc(OC)c1OC (stereo partly specified)
Inequality Symbol: =
Ki (nM): 1050
--
Compound: COc1ccccc1N1CCN(CCCNC(=O)Nc2ccc(F)cc2-c2ccccc2)CC1
Inequality Symbol: =
Ki (nM): 29
--
Compound: CS(=O)(=O)c1ccc2c(c1)CCN(CC[C@H]1CC[C@H](NC(=O)/C=C/c3cccc(F)c3)CC1)CC2
Inequality Symbol: =
Ki (nM): 1.58
--
Compound: COc1ccc2cc([C@H](C)C(=O)NCCCN3CCN(c4ccccc4OC)CC3)ccc2c1
Inequality Symbol: =
Ki (nM): 262
